Data provenance: patent US12624112

Below is a list of entries, each paired with its recorded koff value.
- measured.target: T1, Human ST2-his (human, UniProt Q01638 19-328)
- T1 construct: Expressed in CHO-K1; also called human ST2 fused with a 6-histidine tag at the C-terminus
- T1 sequence: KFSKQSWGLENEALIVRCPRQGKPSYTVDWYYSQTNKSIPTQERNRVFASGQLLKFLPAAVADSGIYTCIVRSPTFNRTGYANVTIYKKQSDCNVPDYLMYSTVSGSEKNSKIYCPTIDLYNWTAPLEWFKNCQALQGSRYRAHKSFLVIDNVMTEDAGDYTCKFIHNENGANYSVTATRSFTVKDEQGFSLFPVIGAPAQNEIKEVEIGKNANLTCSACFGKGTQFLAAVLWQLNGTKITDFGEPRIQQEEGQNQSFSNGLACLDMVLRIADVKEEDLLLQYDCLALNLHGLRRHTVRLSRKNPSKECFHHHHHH
- test.protocol: SPR Biacore X100, antibody on protein A, ST2-his analyte
Record the value in s⁻¹, omitting the unit from your answer.

(Q) Tell me the measured koff of 5886-156H+L (antibody, V domains shown, murine antibody) VH: DVQLQQSGPGLVKPSQSLSLTCTVTGYSITSDYAWNWIRQFPGNKLEWMGYIDYSGSTTYNPSLKSRFSITRDTSKNQFFLQLNSVTTEDTATYYCASTVIDSMDYWGQGTSVTVSS VL: DIVLTQSPASLAVSLGQRATISCRASKSVSTSGHSYMHWYQQKPGQPPKLLIYLASNLESGVPARFSGSGSGTDFTLNINPMEEEDAATYYCQHSREFPFTFGSGTKLEIK , please.
(A) 0.00109

Next:
(Q) Tell me the measured koff of 5888-379H1+L2 (antibody, V domains shown, murine antibody) VH: QIQLAQSGPELKKPGETVKISCKASGYTFINYGMNWVKQAPGKDLKWMGWINTYIGEPTYGDNFKGRFAFSLETSASTVYLQINNLKNEDTATYFCAREGDGFAYWGQGTLVTVSA VL: DIVMTQSPPSLSVSVGEKVTMSCKSSQSLLYSGNQNNYLAWYQQKPGQPPKLLIYGASTRESGVPDRFTGSGSGTDFTLTISSVQAEDLAVYYCQNDHSYPYTFGGGTKLEIK , please.
(A) 0.000546
